- Assay Explanation: NCI Yeast Anticancer Drug Screen. Data for the rad50 strain (AID 155)
- Details: S. cerevisiae rad50 strain growth inhibition; at 100.0 µM
About 79,000 compounds went through this panel and 15% of them were active in at least one assay; those are over-represented in the sample as a whole. The source made the active and inactive calls. Cut-off read from the data, not from the text of the source: active = growth inhibition above about 70%; inactive = the rest.
Can you answer with just one of these options? YES (active), NO (inactive)

O=C1C=C(CN(CCCl)CCCl)C(=O)C=C1CN(CCCl)CCCl NO

Recorded test outcome, item Cc1ccc2c(c1N)C(=O)c1ccccc1C2=O
NO

Recorded test outcome, item O=S(=O)(O)c1ccc(Cl)cc1.[Cd]
YES

###

- Assay Explanation: NCI Yeast Anticancer Drug Screen. Data for the mec2-1 strain (AID 157)
- Details: S. cerevisiae mec2-1 strain, at 50.0 µM (retest, dose inferred, filed as 5.0)
Compounds without any hit were thinned out: in the full panel of roughly 79,000, 15% have a hit. Active and inactive are the calls of the source. Cut-off read from the data, not from the text of the source: active = growth inhibition above about 70%; inactive = the rest.
Can you answer with just one of these options? active, inactive

These solved cases illustrate the format of a correct answer.
Molecule	Assigned Class
CCNC(=O)OCC1C2=C(C(=O)C(C)=C(N)C2=O)N2CC3C(N3C)C12OC (centres undefined)	active
C[n+]1c(/C=C/c2ccc(O)c(O)c2)[se]c2ccccc21	active
CCN(CC)C(=S)S	active

Please examine the following record next.
Recorded test outcome, item O=C(O)Cc1ccc2c(c1)OCO2.[Ag]
active

From: PubChem BioAssay (NCI)
